System: Streptococcus pneumoniae
assay.explanation: Antimicrobial activity against Streptococcus pneumoniae isolate k-598 obtained from bronchoalveolar lavage fluid of patient
Format: functional
condition.parameters: Lung
measure: MIC (µg/mL)
Could you give me the number in µg/mL? Just the number is fine.

Notebook: CC1(C)S[C@@H]2[C@H](NC(=O)[C@H](N)c3ccc(O)cc3)C(=O)N2[C@H]1C(=O)O [AMOXICILLIN] , MIC read as 16

MIC in this record for CO/N=C(\C(=O)N[C@@H]1C(=O)N2C(C(=O)O)=C(COC(C)=O)CS[C@H]12)c1csc(N)n1 [CEFOTAXIME] : 16

----------
System: Streptococcus pneumoniae
assay.explanation: Antimicrobial activity against Streptococcus pneumoniae isolate 657 obtained from sputum of patient
Assay type: functional
Reported values of MIC for individual entries
Kindly provide the numeric value in µg/mL only, without the unit symbol.

molecule: CC1(C)S[C@@H]2[C@H](NC(=O)Cc3ccccc3)C(=O)N2[C@H]1C(=O)O [PENICILLIN G]
MIC, µg/mL: 0.12

GET /value?item= CO/N=C(\C(=O)N[C@@H]1C(=O)N2C(C(=O)[O-])=C(C[N+]3(C)CCCC3)CS[C@H]12)c1csc(N)n1 [CEFEPIME] &field=MIC returns 0.06

The measured MIC associated with CO/N=C(\C(=O)N[C@@H]1C(=O)N2C(C(=O)O)=C(CSc3nc(=O)c(O)nn3C)CS[C@H]12)c1csc(N)n1 [CEFTRIAXONE] reads 0.06

Form: molecule = CO/N=C(\C(=O)N[C@@H]1C(=O)N2C(C(=O)O)=C(COC(C)=O)CS[C@H]12)c1csc(N)n1 [CEFOTAXIME] ; MIC = 0.06

The recorded MIC for entry CO/N=C(\C(=O)N[C@@H]1C(=O)N2C(C(=O)O)=C(COC(N)=O)CS[C@H]12)c1ccco1 [CEFUROXIME] equals 0.12

The molecule identified as CC1(C)S[C@@H]2[C@H](NC(=O)[C@H](N)c3ccc(O)cc3)C(=O)N2[C@H]1C(=O)O [AMOXICILLIN] registered its MIC at 0.06

Sample C[C@@H](O)[C@H]1C(=O)N2C(C(=O)O)=C(S[C@@H]3CN[C@H](C(=O)N(C)C)C3)[C@H](C)[C@H]12 [MEROPENEM] ; MIC observed: 0.06
